Hey, just so you know, these numbers are from patent US20260174875A1.

Molecular target: T1, human amylin-3(a) receptor (human, UniProt P30988 25-474; O60896 24-148)
T1 sequence (looked up) 1: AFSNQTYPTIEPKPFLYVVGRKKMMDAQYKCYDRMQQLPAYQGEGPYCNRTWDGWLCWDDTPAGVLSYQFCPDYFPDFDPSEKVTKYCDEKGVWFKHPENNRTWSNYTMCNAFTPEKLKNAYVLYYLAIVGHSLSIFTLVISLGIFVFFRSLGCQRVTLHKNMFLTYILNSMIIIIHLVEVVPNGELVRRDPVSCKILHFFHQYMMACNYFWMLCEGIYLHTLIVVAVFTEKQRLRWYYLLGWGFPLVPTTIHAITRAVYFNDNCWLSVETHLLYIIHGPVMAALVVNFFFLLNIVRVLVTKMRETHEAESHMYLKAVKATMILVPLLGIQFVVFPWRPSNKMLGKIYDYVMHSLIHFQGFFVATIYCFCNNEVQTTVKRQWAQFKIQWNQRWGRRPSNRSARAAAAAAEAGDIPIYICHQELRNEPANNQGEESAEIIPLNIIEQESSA
T1 sequence (looked up) 2: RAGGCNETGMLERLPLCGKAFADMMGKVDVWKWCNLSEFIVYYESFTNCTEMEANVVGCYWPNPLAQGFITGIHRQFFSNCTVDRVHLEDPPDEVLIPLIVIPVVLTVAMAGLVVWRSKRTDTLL
Assay: cell-based or functional assay
Square brackets hold non-standard residues; d marks the D form. Chem. 27 = not defined here; Aib = CC(C)(N)C(=O)O
reported.metric: hAMYR3 Potency, 1% HSA, EC50 [pM]
Value and unit, in that order.

binder	test.result
Compound 176 (reading uncertain) peptide: Y[Aib]EGTFTSDYSILLEEIAAREFIEWLLAGGPSSGAGASELSTAQTQRLSAELHK(Chem. 27)LATLPRTETGSGSP-NH2	798 pM

Now for the binder whose hAMYR3 Potency, 1% HSA, EC50 [pM] we want.
Enquiry: Recorded hAMYR3 Potency, 1% HSA, EC50 [pM] of Compound 183 (reading uncertain) peptide: Y[Aib]EGTFTSDYSK(Chem. 27)LLEEIAAREFIEWLLAGGPSSGAGASELSTAQLGRLSAELHQLATLPRTETGSGSP-NH2 , please.
Return: 108 pM
